# pEC50 annotations
# Tested on: Human immunodeficiency virus 1
# Protocol Details: Antiviral activity against HIV-1 NL4-3 infected in human MT-4 cells assessed as virus induced cytopathic effect by MTT assay
# Assay type: functional, organism-based
# Assay Setup: Human immunodeficiency virus 1, NL4-3, MT4
pEC50: −log10 of the molar value.

- Smiles: "Cc1cc(C)cc(S(=O)(=O)c2c(C(=O)NCc3ccc(O)cc3)[nH]c3ccc(Cl)cc23)c1"
  pEC50: "> 9.15"
- Smiles: "Cc1cc(C)cc(S(=O)(=O)c2c(C(=O)NCc3ccc(O)c(O)c3)[nH]c3ccc(Cl)cc23)c1"
  pEC50: "> 9.15"
- Smiles: "Cc1cc(C)cc(S(=O)(=O)c2c(C(=O)NCc3cccc(O)c3)[nH]c3ccc(Cl)cc23)c1"
  pEC50: "> 9.22"

====

# Protocol Details: Cytotoxicity against human MT-4 cells assessed as reduction in cell viability by MTT assay
# Format: cell-based, MT4

- Smiles: "Cc1cc(C)cc(S(=O)(=O)c2c(C(=O)NCc3cc(O)ncn3)[nH]c3ccc(Cl)cc23)c1"
  CC50: "> 53.1 µM"
- Smiles: "Cc1cc(C)cc(S(=O)(=O)c2c(C(=O)NCC(=O)NCc3ccccc3O)[nH]c3ccc(Cl)cc23)c1"
  CC50: "> 47.3 µM"
- Smiles: "Cc1cc(C)cc(S(=O)(=O)c2c(C(=O)NCC(=O)NCc3cccc(O)c3)[nH]c3ccc(Cl)cc23)c1"
  CC50: "> 47.5 µM"

====

# Protocol Details: Cytotoxicity against human MT-4 cells assessed as reduction in cell viability by MTT assay
# Format: cell-based, MT4

- Smiles: "Cc1cn([C@H]2C[C@H](N=[N+]=[N-])[C@@H](CO)O2)c(=O)[nH]c1=O"
  CC50: "> 30.6 µM"
- Smiles: "Cc1cc(C#N)cc(C)c1Oc1nc(Nc2ccc(C#N)cc2)nc(N)c1Br"
  CC50: "> 23 µM"
- Smiles: "Cc1ccnc2c1NC(=O)c1cccnc1N2C1CC1"
  CC50: "> 18.8 µM"
- Smiles: "Cc1cc(C)cc(S(=O)(=O)c2c(C(=O)NCc3cccc(O)c3)[nH]c3ccccc23)c1"
  CC50: "> 5.2 µM"
